B1: ADD1 (parent)
chain: LRHSFQKQQREKTRWLNSGRGDEA

- Variants of: B1
- METHOD_DESCRIPTION: protein stability index of a GFP-peptide fusion (GPS, HEK-293T) (PSI 1-6); higher = more stable;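 also: lentivirally expressed fusions sorted by FACS into six bins by GFP to DsRed ratio, PSI derived from sequencing read proportions per bin multiplied by bin number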
- CONDITION_SET: c terminus: a fixed tail appended
Give Fulfilled when the value for protein stability index is at least 4. Give Not fulfilled when it is less.

Q: Please tell me: is the variant G19D at or over 4 in terms of protein stability index?
Ans: Fulfilled

Q: Please tell me: is the variant K12T at or over 4 in terms of protein stability index?
Ans: Not fulfilled

Q: Please tell me: is the variant K12N at or over 4 in terms of protein stability index?
Ans: Not fulfilled

Q: Please tell me: is the variant E23D at or over 4 in terms of protein stability index?
Ans: Not fulfilled

Q: Please tell me: is the variant R10Q at or over 4 in terms of protein stability index?
Ans: Fulfilled

Q: Please tell me: is the variant E23S at or over 4 in terms of protein stability index?
Ans: Not fulfilled

Q: Please tell me: is the variant F5D at or over 4 in terms of protein stability index?
Ans: Fulfilled
